Data origin, for the record: ChEMBL document CHEMBL2034978

target: Mitogen-activated protein kinase; ERK1/ERK2 (Homo sapiens) (UniProt P27361+P28482); assay: Inhibition of ERK1/2 phosphorylation in human PC3 cells at 0.5 uM after 24 hrs by Western blotting relative to beta-actin; format: cell-based; details: PC-3
Sequence (P27361 whole entry, looked up): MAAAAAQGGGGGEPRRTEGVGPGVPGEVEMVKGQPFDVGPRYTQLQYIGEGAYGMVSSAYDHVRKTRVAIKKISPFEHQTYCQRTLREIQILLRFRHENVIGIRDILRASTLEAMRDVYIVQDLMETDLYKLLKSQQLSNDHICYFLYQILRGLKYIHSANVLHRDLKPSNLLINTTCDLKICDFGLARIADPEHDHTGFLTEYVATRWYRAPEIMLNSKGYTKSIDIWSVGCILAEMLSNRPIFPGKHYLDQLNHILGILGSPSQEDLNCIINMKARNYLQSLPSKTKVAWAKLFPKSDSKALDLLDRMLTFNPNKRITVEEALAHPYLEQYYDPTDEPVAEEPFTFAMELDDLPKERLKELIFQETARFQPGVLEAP
Sequence (P28482 whole entry, looked up): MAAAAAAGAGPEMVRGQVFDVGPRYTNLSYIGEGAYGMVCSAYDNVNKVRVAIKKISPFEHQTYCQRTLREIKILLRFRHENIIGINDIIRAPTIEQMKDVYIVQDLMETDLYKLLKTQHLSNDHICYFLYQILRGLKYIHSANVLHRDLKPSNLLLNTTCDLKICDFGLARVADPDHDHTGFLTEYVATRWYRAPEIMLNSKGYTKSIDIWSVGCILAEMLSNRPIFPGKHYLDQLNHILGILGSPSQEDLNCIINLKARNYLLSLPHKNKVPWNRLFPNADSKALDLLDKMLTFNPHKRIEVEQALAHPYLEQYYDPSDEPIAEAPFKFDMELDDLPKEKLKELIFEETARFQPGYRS
Calls of active or inactive are those of the source. The rule behind the calls is not given here.
Entry note: the call must match one of Y for active, N for inactive

For orientation, consider the following solved cases.
>>> assignedclass("O=C1/C(=C/c2cccnc2)CSC/C1=C\\c1cccnc1")
"Y"
>>> assignedclass("O=C1/C(=C/c2ccccn2)CSC/C1=C\\c1ccccn1")
"Y"
>>> assignedclass("COc1cc(/C=C/C(=O)CC(=O)/C=C/c2ccc(O)c(OC)c2)ccc1O")
"N"
>>> assignedclass("COc1cc(/C=C2\\COC/C(=C\\c3cc(OC)c(OC)c(OC)c3)C2=O)cc(OC)c1OC")
"Y"

Just curious, what result did `COc1cc(C=C2CSCC(=Cc3cc(OC)c(OC)c(OC)c3)C2=O)cc(OC)c1OC` get here?
Y

###

tested on: HT-29; assay: Cytotoxicity against human HT-29 cells after 72 hrs by MTT assay; format: functional, cell-based; conditions: HT-29, 72 h
measure: IC50 (µM)
// note: answer is a bare numeric in µM

Sample records with IC50:
>>> endpointresult("COc1ccc(/C=C2\\CCC/C(=C\\c3ccc(OC)c(OC)c3)C2=O)cc1OC")
4
>>> endpointresult("O=C1/C(=C/c2ccc(Cl)cc2)CCC/C1=C\\c1ccc(Cl)cc1")
7.75
>>> endpointresult("COc1ccc(/C=C2\\CC/C(=C\\c3ccc(OC)c(OC)c3OC)C2=O)c(OC)c1OC")
19.8
>>> endpointresult("O=C(/C=C/c1ccc(O)c(O)c1)/C=C/c1ccc(O)c(O)c1")
9.02

# input for lookup
Field request: IC50 | item: `O=C(/C=C/c1ccc(Cl)cc1)/C=C/c1ccc(Cl)cc1`
10.9

###

IC50 overview
test system: HT-29; assay: Cytotoxicity against human HT-29 cells after 72 hrs by MTT assay; format: functional, cell-based; settings: HT-29, 72 h
Kindly answer with a numeric value in µM, unit omitted.

Example results:
>>> endpointresult("COc1cc(/C=C/C(=O)/C=C/c2cc(OC)c(OC)c(OC)c2)cc(OC)c1OC")
1.68
>>> endpointresult("COc1cc(/C=C2\\CCC/C(=C\\c3cc(OC)c(O)c(OC)c3)C2=O)cc(OC)c1O")
2.7
>>> endpointresult("O=C1/C(=C/c2ccc(Br)cc2)CC/C1=C\\c1ccc(Br)cc1")
19.9
>>> endpointresult("COc1cc(/C=C2\\CC/C(=C\\c3ccc(O)c(OC)c3)C2=O)ccc1O")
9.7
>>> endpointresult("COc1cc(C=C2CSCC(=Cc3cc(OC)c(OC)c(OC)c3)C2=O)cc(OC)c1OC")
0.26

What measured IC50 is associated with `O=C1/C(=C/c2ccccn2)COC/C1=C\c1ccccn1` on HT-29?
3.28

Item `O=C1/C(=C/c2ccc(Cl)cc2)CC/C1=C\c1ccc(Cl)cc1` with HT-29 - IC50?
15.9

Provide the documented IC50 with HT-29 as the system for `COc1ccc(/C=C2\CCC/C(=C\c3ccc(OC)cc3)C2=O)cc1`
13.7

Give HT-29 IC50 for `O=C1/C(=C/c2ccccn2)CCC/C1=C\c1ccccn1`
1.43

Find the measured IC50: item `O=C1/C(=C/c2ccc(F)cc2)CNC/C1=C\c1ccc(F)cc1` , target or system HT-29.
3.26

Quick check: IC50 on HT-29, item `O=C1/C(=C/c2ccsc2)CCC/C1=C\c1ccsc1` ?
17.3

Give HT-29 IC50 for `COc1cc(/C=C2\COC/C(=C\c3cc(OC)c(OC)c(OC)c3)C2=O)cc(OC)c1OC`
0.16

Form field - read-out: IC50; system: HT-29; submitted item: `COc1ccc(/C=C/C(=O)/C=C/c2ccc(OC)c(OC)c2)cc1OC`
2.17

###

system: HT-29; test: Cytotoxicity against human HT-29 cells after 72 hrs by MTT assay; format: functional, cell-based; settings: HT-29, 72 h
# Lookup of reported IC50 keyed by entry
Please respond with the number in µM and leave the unit unwritten.

Known results for compounds:
>>> endpointresult("COc1ccc(/C=C2\\COC/C(=C\\c3ccc(OC)c(OC)c3OC)C2=O)c(OC)c1OC")
2.45
>>> endpointresult("COc1cc(/C=C2\\CC/C(=C\\c3cc(OC)c(OC)c(OC)c3)C2=O)cc(OC)c1OC")
12.7
>>> endpointresult("O=C1/C(=C/c2cccnc2)CC/C1=C\\c1cccnc1")
5.54

Now for the compound whose IC50 we want.
# input compound: `COc1cc(/C=C2\CCC/C(=C\c3ccc(O)c(OC)c3)C2=O)ccc1O` ; wanted: its IC50
3.73

###

test system: HT-29; test: Cytotoxicity against human HT-29 cells after 72 hrs by MTT assay; type: functional, cell-based; settings: HT-29, 72 h
measure: pIC50
The meaning of pIC50 here: minus log10 of the concentration in molar units.

Examples with their reported pIC50 follow.
>>> endpointresult("O=C1/C(=C/c2ccsc2)CSC/C1=C\\c1ccsc1")
5.17
>>> endpointresult("COc1ccc(C=C2CSCC(=Cc3ccc(OC)cc3)C2=O)cc1")
5.10
>>> endpointresult("O=C1/C(=C/c2ccc(Br)cc2)CCC/C1=C\\c1ccc(Br)cc1")
5.04
>>> endpointresult("COc1ccc(/C=C/C(=O)/C=C/c2ccc(OC)cc2)cc1")
4.95
>>> endpointresult("O=C1/C(=C/c2cccnc2)COC/C1=C\\c1cccnc1")
5.74
>>> endpointresult("COc1cc(/C=C2\\CC/C(=C\\c3cc(OC)c(O)c(OC)c3)C2=O)cc(OC)c1O")
5.11
>>> endpointresult("O=C1/C(=C/c2ccsc2)COC/C1=C\\c1ccsc1")
5.05

Now let's try a different one.
If you can, please state the reported pIC50 value of `O=C1/C(=C/c2ccncc2)COC/C1=C\c1ccncc1` .
5.38
